# ASSAY_DETAILS: Absorption spectra and extinction coefficients of dyes
# Format: physicochemical
# MEASUREMENT_SETUP: Water
Field: Absorption max.. Provide a value for each of the molecules that follow.
One number for each entry, in nm.

See these solved cases before continuing.
For the molecule CN1\C(=C/C=C/C=C/C=C/C2=[N+](C)c3ccc(I)cc3C2(C)C)C(C)(C)c2cc(I)ccc21.[I-] , give its reported Absorption max..
750

Look up Absorption max. of CC1(CCCCCC(=O)O)C(/C=C/C=C/C=C/C=C2\N(CCCCS(=O)(=O)O)c3ccc(S(=O)(=O)[O-])cc3C2(C)CCCCS(=O)(=O)O)=[N+](CCCS(=O)(=O)O)c2cc(I)c(I)c(I)c21 (centres unmarked) and report it.
758

Give the reported Absorption max. for this molecule. C[N+]1=C(C=CC=CC=CC=C2N(CCCCCC(=O)NCCOCCOCCOCCC(=O)O)c3ccc(S(=O)(=O)[O-])cc3C2(C)CCCCS(=O)(=O)O)C(C)(C)c2c(I)cc(I)cc21 (centres unmarked)
750

Please indicate Absorption max. recorded for CN1\C(=C/C=C/C=C/C=C/C2=[N+](C)c3cc(I)c(I)c(I)c3C2(C)CCCCCC(=O)O)C(C)(CCCCCC(=O)O)c2c1cc(I)c(I)c2I.[I-] (centres unmarked)
783

Moving on to the next molecule.
Let me know recorded Absorption max. for C[N+]1=C(C=CC=CC=CC=C2N(CCCCS(=O)(=O)[O-])c3ccc(S(=O)(=O)O)cc3C2(C)C)C(CCCCCC(=O)O)c2c(I)cc(I)cc21 (centres unmarked) , thanks.
748

* * *

# ASSAY_DETAILS: Fluorescence emission spectra and quantum yield relative to HITC
# Type: physicochemical
# MEASUREMENT_SETUP: Methanol
Would you mind telling me the reported Emission max. of each entry?
One number for each entry, in nm.

Example results:
Answer with the recorded Emission max. of C[N+]1=C(C=CC=CC=CC=C2N(CCCCS(=O)(=O)[O-])c3ccc(S(=O)(=O)O)cc3C2(C)C)C(CCCCCC(=O)O)c2c(I)cc(I)cc21 (stereo not drawn) only.
779

State, in one line, measured Emission max. of CN1\C(=C/C=C/C=C/C=C/C2=[N+](C)c3cc(I)cc(I)c3C2(C)C)C(C)(C)c2c(I)cc(I)cc21.[I-]
773

State its Emission max.: CN1\C(=C/C=C/C=C/C=C/C2=[N+](C)c3ccccc3C2(C)C)C(C)(C)c2ccccc21.[I-] [HITC, reference compound]
768

For the compound CN1/C(=C\C=C2/CCCC(/C=C/C3=[N+](C)c4ccc(I)cc4C3(C)C)=C2Cl)C(C)(C)c2cc(I)ccc21.[I-] , give its measured Emission max. value.
806

Kindly indicate its recorded Emission max.. Item: CN1/C(=C\C=C2/CCCC(/C=C/C3=[N+](C)c4cc(I)c(I)c(I)c4C3(C)C)=C2Cl)C(C)(C)c2c1cc(I)c(I)c2I.[I-]
808

// next item, Emission max. requested
Give the reported value of Emission max. for this record: CN1\C(=C/C=C/C=C/C=C/C2=[N+](C)c3cc(Br)c(Br)c(Br)c3C2(C)C)C(C)(C)c2c1cc(Br)c(Br)c2Br.[I-]
778

* * *

# ASSAY_DETAILS: Phototoxicity (glow lamp) and dark toxicity by hemolysis of bovine erythrocytes
# Assay type: cell-based
# MEASUREMENT_SETUP: bovine, bovine erythrocytes; Glow Lamp, 5 μM, exposure 60 min
# Method: Bovine erythrocytes were isolated from blood plasma stored with sodium citrate. 1 mL of bovine blood was treated at centrifuge (3,000 rpm) for 10 min to precipitate erythrocytes. The supernatant was decanted, 2 mL of physiological solution were added, treated and erythrocytes were precipitated with centrifuge. […] The hemolysis level (percentage of hemolyzed cells) was determined as the ratio of absorbances of the supernatant and a solution of 100% hemolysed cells. […]
READOUT_TYPE: hemolysis at 60 min, 5 µM (%)
Numbers only, in %.

Note hemolysis at 60 min, 5 µM for the compound shown: CN1\C(=C/C=C/C=C/C=C/C2=[N+](C)c3ccccc3C2(C)C)C(C)(C)c2ccccc21.[I-] [HITC, reference compound]
65

* * *

Please go through the items and note down their Emission max..
# ASSAY_DETAILS: Fluorescence emission spectra and quantum yield relative to HITC
# Format: physicochemical
# MEASUREMENT_SETUP: Methanol
Give bare numbers, in nm.

Tell us which Emission max. value is on record for CC1(CCCCCC(=O)O)C(/C=C/C=C/C=C/C=C2\N(CCCS(=O)(=O)O)c3cc(I)c(I)c(I)c3C2(C)CCCCCC(=O)O)=[N+](CCCS(=O)(=O)[O-])c2cc(I)c(I)c(I)c21 (stereo not shown)
795

I would be grateful if you could provide Emission max. for each of the following entries.
1. CN(C)c1ccc(SC2=C(/C=C/C3=[N+](C)c4ccc(I)cc4C3(C)C)CCC/C2=C\C=C2/N(C)c3ccc(I)cc3C2(C)C)cc1.[I-]
2. CN1\C(=C/C=C/C=C/C=C/C2=[N+](C)c3cc(I)c(I)c(I)c3C2(C)CCCCCC(=O)N2CC[N+]3(CC2)CC[N+]2(CCNCC2)CC3)C(C)(CCCCCC(=O)N2CC[N+]3(CC2)CC[N+]2(CCNCC2)CC3)c2c1cc(I)c(I)c2I.[Cl-].[Cl-].[Cl-].[Cl-].[Cl-] (stereo not shown)
3. CN1\C(=C/C=C/C=C/C=C/C2=[N+](C)c3ccc(I)cc3C2(C)C)C(C)(C)c2cc(I)ccc21.[I-]
4. CC1(CCCCCC(=O)NCCS(=O)(=O)O)C(/C=C/C=C/C=C/C=C2\N(CCCS(=O)(=O)O)c3cc(I)c(I)c(I)c3C2(C)CCCCCC(=O)NCCS(=O)(=O)O)=[N+](CCCS(=O)(=O)[O-])c2cc(I)c(I)c(I)c21 (stereo not shown)
5. CC1(CCCCCC(=O)N2CC[N+]3(CC2)CC[N+]2(CCNCC2)CC3)C(/C=C/C=C/C=C/C=C2\N(CCCS(=O)(=O)[O-])c3cc(I)c(I)c(I)c3C2(C)CCCCCC(=O)N2CC[N+]3(CC2)CC[N+]2(CCNCC2)CC3)=[N+](CCCS(=O)(=O)[O-])c2cc(I)c(I)c(I)c21.[Cl-].[Cl-].[Cl-] (stereo not shown)
6. CN1\C(=C/C=C/C=C/C=C/C2=[N+](C)c3cc(I)c(I)c(I)c3C2(C)CCCCCC(=O)O)C(C)(CCCCCC(=O)O)c2c1cc(I)c(I)c2I.[I-] (stereo not shown)

1. 812
2. 788
3. 784
4. 794
5. 795
6. 783

* * *

Please provide measured hemolysis at 60 min, 0.1 µM for the entries that follow.
# ASSAY_DETAILS: Phototoxicity (glow lamp) and dark toxicity by hemolysis of bovine erythrocytes
# Type: cell-based
# MEASUREMENT_SETUP: bovine, bovine erythrocytes; Glow Lamp, 0.1 μM, exposure 60 min
Answers are plain numbers, in %.

For the molecule CN1\C(=C/C=C/C=C/C=C/C2=[N+](C)c3cc(I)cc(I)c3C2(C)C)C(C)(C)c2c(I)cc(I)cc21.[I-] , give its reported hemolysis at 60 min, 0.1 µM.
21

Look up hemolysis at 60 min, 0.1 µM of CC1(CCCCCC(=O)O)C(/C=C/C=C/C=C/C=C2\N(CCCS(=O)(=O)O)c3cc(I)c(I)c(I)c3C2(C)CCCCCC(=O)O)=[N+](CCCS(=O)(=O)[O-])c2cc(I)c(I)c(I)c21 (stereo not shown) and report it.
70

Answer with the recorded hemolysis at 60 min, 0.1 µM of CN1\C(=C/C=C/C=C/C=C/C2=[N+](C)c3ccc(I)cc3C2(C)C)C(C)(C)c2cc(I)ccc21.[I-] only.
39

***
Return the recorded hemolysis at 60 min, 0.1 µM value; entry: CN1\C(=C/C=C/C=C/C=C/C2=[N+](C)c3cc(I)c(I)c(I)c3C2(C)C)C(C)(C)c2c1cc(I)c(I)c2I.[I-]
43

* * *

# ASSAY_DETAILS: Fluorescence emission spectra and quantum yield relative to HITC
# Type: physicochemical
# MEASUREMENT_SETUP: Methanol
READOUT_TYPE: Emission max.

Answer with the recorded Emission max. for the compound listed here: CC1(C)C(/C=C/C=C/C=C/C=C2\N(CCCCS(=O)(=O)[O-])c3ccc4ccccc4c3C2(C)C)=[N+](CCCCS(=O)(=O)[O-])c2ccc3ccccc3c21.[Na+] [ICG, Indocyanine green, reference compound]
818 nm

Output Emission max. of CC(C)(C)C1=CC(=C/C=C/C=C/C=C/C2=[N+](CCCS(=O)(=O)[O-])c3ccc(I)cc3C2(C)CCCCCC(=O)O)C=C(C(C)(C)C)O1 (stereo not drawn)
826 nm

Alright, here's another compound for you.
Give recorded Emission max.. CN1\C(=C/C=C/C=C/C=C/C2=[N+](C)c3cc(I)c(I)c(I)c3C2(C)C)C(C)(C)c2c1cc(I)c(I)c2I.[I-]
785 nm

Provenance of the data: patent US9572881B2
